# Tested on: M. suipneumoniae Str. 11
# assay-method-text: MIC against mycoplasma in vitro
# Format: cell-based
# measurement-parameters: Mesomycoplasma hyopneumoniae, 144 h; M. suipneumoniae Str. 11; 6 days, 37° C.; read-out: MIC
Consider the following molecules; for each one, report its MIC.
Give bare numbers, in µg/mL.

Which MIC value is on record for C/C(=C\c1ncc(-c2ccc(C=O)cc2)o1)C[C@@H]1OC[C@H](C[C@@H]2O[C@H]2[C@@H](C)[C@H](C)O)[C@@H](O)[C@H]1O ? 0.5

Now for a further molecule.
Which MIC value is on record for C/C(=C\c1ncc(-c2ccsc2)o1)C[C@@H]1OC[C@H](C[C@@H]2O[C@H]2[C@@H](C)[C@H](C)O)[C@@H](O)[C@H]1O ? 0.5
